Tested on: LoVo (human colon adenocarcinoma, sensitive)
Experiment: SRB antiproliferative assay, 72 h exposure
Assay type: cell-based
Conditions: read-out: IC50 ± SD LoVo
Assay endpoint: IC50 (µM)
The reply should be a number in µM, with the unit left off.

Task: Item N.N.[Cl][Pt][Cl] [Cisplatin, reference compound] has what recorded IC50?
Output: 5.6

###

Assay endpoint: melting point

Previously resolved entries follow.
>  <Smiles structure>
COc1cccc(/C=N/NC(=O)c2c(C)nsc2Cl)c1

>  <melting point>
139 to 140 °C

$$$$
>  <Smiles structure>
Cc1nsc(Cl)c1C(=O)N/N=C/c1cccc(Cl)c1

>  <melting point>
174 to 175 °C

$$$$
>  <Smiles structure>
Cc1nsc(Cl)c1C(=O)N/N=C/c1ccccc1

>  <melting point>
164 to 165 °C

$$$$

Consider the record given below.
Task: Item "Cc1ccc(/C=N/NC(=O)c2c(C)nsc2Cl)c(C)c1" has what recorded melting point?
Output: 232 to 234 °C
